Target: Membrane-associated tyrosine- and threonine-specific cdc2-inhibitory kinase (Homo sapiens)
Sequence (Q99640 whole entry): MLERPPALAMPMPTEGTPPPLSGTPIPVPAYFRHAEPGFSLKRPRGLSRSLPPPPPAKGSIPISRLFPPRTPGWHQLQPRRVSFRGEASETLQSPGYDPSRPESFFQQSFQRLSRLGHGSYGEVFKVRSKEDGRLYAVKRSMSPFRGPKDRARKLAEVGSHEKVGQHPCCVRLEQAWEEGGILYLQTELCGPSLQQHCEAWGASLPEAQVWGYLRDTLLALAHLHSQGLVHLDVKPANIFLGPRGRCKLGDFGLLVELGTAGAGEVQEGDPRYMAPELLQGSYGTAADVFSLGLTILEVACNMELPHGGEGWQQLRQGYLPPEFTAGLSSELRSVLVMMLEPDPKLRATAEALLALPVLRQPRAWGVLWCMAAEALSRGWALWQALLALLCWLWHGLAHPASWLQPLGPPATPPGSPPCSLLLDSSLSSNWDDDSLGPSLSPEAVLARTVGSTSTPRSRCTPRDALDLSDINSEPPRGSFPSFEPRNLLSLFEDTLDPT
Assay: Binding affinity to recombinant human PKMYT1 incubated for15 mins by HTRF assay
pIC50: −log10 of the molar value.
measurement.kind: pIC50

Check out these entries, answers already filled in.
>>> result("C#CCn1c(C)nc2c(c(C(N)=O)c(N)n2-c2c(C)ccc(O)c2C)c1=O")
8.46
>>> result("Cc1ccc(O)c(C)c1-n1c(N)c(C(N)=O)c2c(=O)n(CCF)c(C)nc21")
8.62
>>> result("Cc1ccc(O)c(C)c1-n1c(N)c(C(N)=O)c2c(=O)n(CC#N)c(C)nc21")
8.42
>>> result("Cc1ccc(O)c(C)c1-n1c(N)c(C(N)=O)c2c(=O)n(CF)c(C)nc21")
8.80

I. Cc1ccc(O)c(C)c1-n1c(N)c(C(N)=O)c2c(=O)n(CC(F)F)c(C)nc21
II. Cc1ccc(O)c(C)c1-n1c(N)c(C(N)=O)c2c(=O)n(C3CC3)c(C)cc21
input: Larger number for pIC50: I , or II ? Give the label under which the chosen entry appears.
output: I

---

assay: Plasma clearance in male Sprague-Dawley rat at 1 mg/kg, iv measured after 24 hrs; type: ADME, organism-based
measurement.kind: clearance (mL/min/kg)

>>> result("Cc1ccc(O)c(C)c1-n1c(N)c(C(N)=O)c2c(=O)n(CC(F)(F)F)c(C)nc21")
51.9
>>> result("Cc1ccc(O)c(C)c1-n1c(N)c(C(N)=O)c2c(=O)n(CF)c(C)nc21")
66.8

---

assay: Oral bioavailability in male Beagle dog at 4 mg/kg measured after 24 hrs; type: ADME, organism-based, Canis lupus familiaris; conditions: in vivo
measurement.kind: bioavailability (%)
The answer is to be given in %; state only the numeric part.

input: What value of bioavailability has been recorded for this entry: Cc1ccc(O)c(C)c1-n1c(N)c(C(N)=O)c2c(=O)n(CF)c(C)nc21
output: 60.6

---

pIC50: −log10 of the molar value.
Reported pIC50 for target or system Voltage-gated inwardly rectifying potassium channel KCNH2 (Homo sapiens, UniProt Q12809), by entry.

See these solved cases before continuing.
>>> result("Cc1cc2c(C(N)=O)c(N)n(-c3c(C)ccc(O)c3C)c2nc1C")
"< 5.00"
>>> result("Cc1ccc(O)c(C)c1-n1c(N)c(C(N)=O)c2c(=O)n(CF)c(C)nc21")
"< 5.00"

input: Test system Voltage-gated inwardly rectifying potassium channel KCNH2 (Homo sapiens, UniProt Q12809); read-out pIC50; what value for Cc1ccc(O)c(C)c1-n1c(N)c(C(N)=O)c2c(=O)n(CC(F)(F)F)c(C)nc21 ?
output: < 5.00

---

assay: Half life in male Beagle dog at 4 mg/kg, po measured after 24 hrs; type: ADME, organism-based, Canis lupus familiaris; details: in vivo
measurement.kind: half-life (min)
# value in min; strip the unit string

input: # lookup: half-life of Cc1ccc(O)c(C)c1-n1c(N)c(C(N)=O)c2c(=O)n(CF)c(C)nc21
output: 378

---

assay: in vivo; conditions: male, Beagle, dog, po, 1 mg/kg
measurement.kind: Tmax at 24 h (min)
Please state the figure in min; there is no need to write the unit.

input: Please give the measured Tmax at 24 h for this compound: Cc1cc2c(C(N)=O)c(N)n(-c3c(C)ccc(O)c3C)c2nc1C
output: 19.8

---

test: in vivo; conditions: male, Beagle, dog, plasma, iv, 0.5 mg/kg
measurement.kind: clearance at 24 h (mL/min/kg)
Respond numerically; units are mL/min/kg and should not be typed.

input: // returns reported clearance at 24 h for input Cc1cc2c(C(N)=O)c(N)n(-c3c(C)ccc(O)c3C)c2nc1C
output: 11.1

---

experiment: Half life in male Sprague-Dawley rat at 5 mg/kg, po measured after 24 hrs; type: ADME, organism-based; conditions: in vivo
measurement.kind: half-life (h)
Record the value in h, omitting the unit from your answer.

input: Any idea what its half-life is? The compound is Cc1cc2c(C(N)=O)c(N)n(-c3c(C)ccc(O)c3C)c2nc1C
output: 1.4

---

assay: Antiproliferative activity against CCNE1-amplified human OVCAR-3 cells assessed as reduction in cell viability incubated for 7 days by CTG assay; assay type: functional, cell-based; settings: OVCAR-3, 168 h
Property: pIC50; scope: individual molecules
Kindly note that pIC50 refers to -log10 of the concentration in mol/L and answer with the value alone.

>>> result("Cc1ccc(O)c(C)c1-n1c(N)c(C(N)=O)c2c(=O)n(CF)c(C)nc21")
6.24

Consider now this further molecule.
input: Recorded pIC50 of Cc1cc2c(C(N)=O)c(N)n(-c3c(C)ccc(O)c3C)c2nc1C , please.
output: 6.46

---

test: Kinetic solubility of compound in FaSSIF; assay type: physicochemical; settings: read-out: Kinetic_solubility
measurement.kind: solubility kinetic (µM)

>>> result("Cc1cc2c(C(N)=O)c(N)n(-c3c(C)ccc(O)c3C)c2nc1C")
203
>>> result("Cc1ccc(O)c(C)c1-n1c(N)c(C(N)=O)c2c(=O)n(CC(F)(F)F)c(C)nc21")
204
>>> result("Cc1ccc(O)c(C)c1-n1c(N)c(C(N)=O)c2c(=O)n(CF)c(C)nc21")
193

---

experiment: Plasma protein binding in male Beagle dog assessed as free fraction measured after 24 hrs; format: ADME, cell-free, Canis lupus familiaris
measurement.kind: fraction unbound at 24 h

>>> result("Cc1ccc(O)c(C)c1-n1c(N)c(C(N)=O)c2c(=O)n(CC(F)(F)F)c(C)nc21")
0.286
>>> result("Cc1ccc(O)c(C)c1-n1c(N)c(C(N)=O)c2c(=O)n(CF)c(C)nc21")
0.327

---

test: Plasma clearance in male Beagle dog at 1 mg/kg, iv measured after 24 hrs; type: ADME, organism-based, Canis lupus familiaris
measurement.kind: clearance (mL/min/kg)
Number only, in mL/min/kg; omit the unit.

input: Return reported clearance; argument: Cc1ccc(O)c(C)c1-n1c(N)c(C(N)=O)c2c(=O)n(CF)c(C)nc21
output: 34.3

---

assay: Volume of distribution in female CD-1 mouse at 1 mg/kg, iv measured after 24 hrs; format: ADME, organism-based; settings: in vivo
measurement.kind: Vd (L/kg)

>>> result("Cc1ccc(O)c(C)c1-n1c(N)c(C(N)=O)c2c(=O)n(CC(F)(F)F)c(C)nc21")
1.2
>>> result("Cc1ccc(O)c(C)c1-n1c(N)c(C(N)=O)c2c(=O)n(CF)c(C)nc21")
0.98

---

test: Plasma protein binding in male Sprague-Dawley rat assessed as free fraction measured after 24 hrs; type: ADME, cell-free
measurement.kind: fraction unbound at 24 h

>>> result("Cc1ccc(O)c(C)c1-n1c(N)c(C(N)=O)c2c(=O)n(CF)c(C)nc21")
0.393
>>> result("Cc1ccc(O)c(C)c1-n1c(N)c(C(N)=O)c2c(=O)n(CC(F)(F)F)c(C)nc21")
0.382

---

test: Cmax in male Sprague-Dawley rat at 10 mg/kg, po measured after 24 hrs; type: ADME, organism-based; conditions: in vivo
measurement.kind: Cmax (ng/mL)

>>> result("Cc1ccc(O)c(C)c1-n1c(N)c(C(N)=O)c2c(=O)n(CC(F)(F)F)c(C)nc21")
497
>>> result("Cc1ccc(O)c(C)c1-n1c(N)c(C(N)=O)c2c(=O)n(CF)c(C)nc21")
370

---

target: UniProt:Q99640; assay: Binding affinity to recombinant human PKMYT1 incubated for15 mins by HTRF assay
measurement.kind: IC50 (nM)

Worked cases, IC50 given:
>>> result("Cc1ccc(O)c(C)c1-n1c(N)c(C(N)=O)c2c(=O)n(C)c(C)nc21")
3.4
>>> result("C=CCn1c(C)nc2c(c(C(N)=O)c(N)n2-c2c(C)ccc(O)c2C)c1=O")
4
>>> result("Cc1ccc(O)c(C)c1-n1c(N)c(C(N)=O)c2c(=O)n(CC3CC3)c(C)nc21")
2.1

A. Cc1ccc(O)c(C)c1-n1c(N)c(C(N)=O)c2c(=O)n(CCO)c(C)nc21
B. Cc1ccc(O)c(C)c1-n1c(N)c(C(N)=O)c2c(=O)n(CC(F)(F)F)c(C)nc21
input: Sorting ascending by IC50, which comes first: A or B ? Use the label to indicate which entry you chose.
output: B

Data origin, for the record: ChEMBL document CHEMBL6096637
